All values here come from ChEMBL document CHEMBL1649508.

Test system: Bordetella pertussis
Assay: Antibacterial activity against quinolone-susceptible Bordetella pertussis BP128 by Etest method
Assay type: functional
Strictly below 0.02 µg/mL in MIC: satisfied. Otherwise: not satisfied.

These solved cases illustrate the format of a correct answer.
>>> class_label("O=C(O)c1cn(C2CC2)c2cc(N3CCNCC3)c(F)cc2c1=O")
"satisfied"
>>> class_label("COc1c(N2CCNC(C)C2)c(F)cc2c(=O)c(C(=O)O)cn(C3CC3)c12 (configuration not stated)")
"satisfied"
>>> class_label("C[C@@H]1CN(c2c(F)c(N)c3c(=O)c(C(=O)O)cn(C4CC4)c3c2F)C[C@H](C)N1")
"satisfied"
>>> class_label("C[C@H]1COc2c(N3CCN(C)CC3)c(F)cc3c(=O)c(C(=O)O)cn1c23.C[C@H]1COc2c(N3CCN(C)CC3)c(F)cc3c(=O)c(C(=O)O)cn1c23.O")
"satisfied"
>>> class_label("CCn1cc(C(=O)O)c(=O)c2ccc(C)nc21")
"not satisfied"
>>> class_label("O=C(N[C@H](CO)[C@H](O)c1ccc([N+](=O)[O-])cc1)C(Cl)Cl")
"not satisfied"

From here, focus on the item given below.
In plain terms, does `CCn1cc(C(=O)O)c(=O)c2cc(F)c(N3CCNCC3)cc21` come in under 0.02 µg/mL for MIC? not satisfied
